Experiment: Tmax in mouse at 50 mg/kg, po
Type: ADME, organism-based
Set-up: dose 50 mg/kg, route oral
Conditions: in vivo
This section presents molecules with their documented Tmax values.
A number alone suffices; assume min.

Note down Tmax recorded for CC(C)c1cc(-c2noc(NC(=O)C3CC3)c2-c2ccc(CN3CCOCC3)cc2)c(O)cc1O
4.98

Let us examine a further case.
Note down Tmax recorded for CC(C)c1cc(-c2noc(NC(=O)C3CC3)c2-c2ccc(CN3CCC(N4CCOCC4)CC3)cc2)c(O)cc1O
15

* * *

Test system: A549
Test: Growth inhibition of human A549 cells after 72 hrs by SRB assay
Assay type: functional
Conditions: A549, 72 h
Classification by GI50 | ranges: lo (below 0.2 µM), mid (0.2 µM to below 6 µM), hi (6 µM or more)

Field: example entries. Status: answers known.
State the band of CC(C)c1cc(-c2noc(NC(=O)C3CC3)c2-c2ccc(CN3CCC(N4CCCC4)CC3)cc2)c(O)cc1O
mid

State the band of CCNC(=O)Nc1onc(-c2cc(Cl)c(O)cc2O)c1-c1ccc(OC)cc1
mid

Next:
State the band of CC(C)c1cc(-c2noc(NC(=O)C3CC3)c2-c2ccc(CN3CCN(C)CC3)cc2)c(O)cc1O
mid

State the band of CC(C)c1cc(-c2noc(NC(=O)C3CC3)c2-c2ccc(CN(C)CCc3ccccc3)cc2)c(O)cc1O
lo

State the band of CC(C)c1cc(-c2noc(NC(=O)C3CC3)c2-c2ccc(CN3CCOCC3)cc2)c(O)cc1O
lo

* * *

Test system: A549
Experiment: Growth inhibition of human A549 cells after 72 hrs by SRB assay
Assay type: functional
Conditions: A549, 72 h
This section presents compounds with their documented GI50 values.
A number alone suffices; assume µM.

Before answering, review these 4 worked examples.
Note down GI50 recorded for CC(C)c1cc(-c2noc(NC(=O)C3CC3)c2-c2ccc(CN3CCSCC3)cc2)c(O)cc1O
0.203

Note down GI50 recorded for COc1ccc(-c2c(-c3cc(Cl)c(O)cc3O)noc2NC(=O)C2CCCCC2)cc1
42.9

Note down GI50 recorded for CC1CN(Cc2ccc(-c3c(-c4cc(C(C)C)c(O)cc4O)noc3NC(=O)C3CC3)cc2)CC(C)O1 (centres undefined)
0.129

Note down GI50 recorded for COc1ccc(-c2c(-c3cc(Cl)c(O)cc3O)noc2NC(C)=O)cc1
7.2

Next:
Note down GI50 recorded for COc1ccc(-c2c(-c3cc(C(C)C)c(O)cc3O)noc2NC(=O)C2CC2)cc1
1.18

Note down GI50 recorded for COc1ccc(-c2c(-c3cc(Cl)c(O)cc3O)noc2N)cc1
0.931

Note down GI50 recorded for CC(C)c1cc(-c2noc(NC(=O)C3CC3)c2-c2ccc(CN(C)CCN(C)C)cc2)c(O)cc1O
0.499

Note down GI50 recorded for COc1ccc(-c2c(-c3cc(Br)c(O)cc3O)noc2NC(C)=O)cc1
3.76

Note down GI50 recorded for CCNC(=O)c1noc(-c2cc(C(C)C)c(O)cc2O)c1-c1ccc(CN2CCOCC2)cc1
0.026

* * *

Target: Heat shock protein HSP 90-alpha (Homo sapiens, UniProt P07900)
IC50 less than 40 nM is Satisfied; IC50 greater than or equal to 40 nM is Not satisfied.

Field: example entries. Status: answers known.
Determine whether this compound shows IC50 lower than 40 nM (ties excluded): CCNC(=O)Nc1onc(-c2cc(Cl)c(O)cc2O)c1-c1ccc(OC)cc1
Not satisfied

Determine whether this compound shows IC50 lower than 40 nM (ties excluded): CCCC(=O)Nc1onc(-c2cc(Cl)c(O)cc2O)c1-c1ccc(OC)cc1
Not satisfied

Determine whether this compound shows IC50 lower than 40 nM (ties excluded): COc1ccc(-c2c(-c3cc(Cl)c(O)cc3O)noc2NC(=O)C(C)C)cc1
Satisfied

Determine whether this compound shows IC50 lower than 40 nM (ties excluded): CCc1cc(-c2noc(NC(C)=O)c2-c2ccc(OC)cc2)c(O)cc1O
Not satisfied

Determine whether this compound shows IC50 lower than 40 nM (ties excluded): COc1ccc(-c2c(-c3cc(Cl)c(O)cc3O)noc2NC(=O)C2CCCC2)cc1
Not satisfied

Consider now this further compound.
Determine whether this compound shows IC50 lower than 40 nM (ties excluded): COc1ccc(-c2c(-c3cc(Cl)c(O)cc3O)noc2NC(=O)C(C)(C)C)cc1
Not satisfied

* * *

Assay: Oral bioavailability in mouse at 50 mg/kg
Format: ADME, organism-based
Conditions: in vivo
This section presents compounds with their documented bioavailability values.
A number alone suffices; assume %.

Note down bioavailability recorded for CC(C)c1cc(-c2noc(NC(=O)C3CC3)c2-c2ccc(CN3CCC(N4CCOCC4)CC3)cc2)c(O)cc1O
9.2

Next:
Note down bioavailability recorded for CC(C)c1cc(-c2noc(NC(=O)C3CC3)c2-c2ccc(CN3CCOCC3)cc2)c(O)cc1O
16.1

* * *

System: A549
Assay: Growth inhibition of human A549 cells after 72 hrs by SRB assay
Type: functional
Conditions: A549, 72 h
This section presents molecules with their documented GI50 values.
A number alone suffices; assume µM.

Note down GI50 recorded for COc1ccc(-c2c(-c3cc(Cl)c(O)cc3O)noc2NC(=O)CC(C)C)cc1
5.98

* * *

Biological target: Heat shock protein HSP 90-alpha (Homo sapiens)
recorded.endpoint: IC50 (nM)
A number alone suffices; assume nM.

Note down IC50 recorded for COc1ccc(-c2c(-c3cc(Cl)c(O)cc3O)noc2NC(=O)C2CC2)cc1
53

Note down IC50 recorded for CC(C)c1cc(-c2noc(NC(=O)C3CC3)c2-c2ccc(CN3CCC(N(C)C)CC3)cc2)c(O)cc1O
70

Note down IC50 recorded for CCC(=O)Nc1onc(-c2cc(Cl)c(O)cc2O)c1-c1ccc(OC)cc1
37

Let us examine a further case.
Note down IC50 recorded for CC(C)c1cc(-c2noc(NC(=O)C3CC3)c2-c2ccc(CN3CCOCC3)cc2)c(O)cc1O
27

* * *

Tested on: A549
Experiment: Growth inhibition of human A549 cells after 72 hrs by SRB assay
Type: functional
Details: A549, 72 h
recorded.endpoint: GI50
Please make sure the unit comes right after the number.

Before answering, review these 2 worked examples.
Note down GI50 recorded for COc1ccc(-c2c(-c3cc(Cl)c(O)cc3O)noc2NC(=O)C2CCCC2)cc1
18.7 µM

Note down GI50 recorded for COc1ccc(-c2c(-c3cc(Cl)c(O)cc3O)noc2NC(=O)C2CC2)cc1
20.7 µM

Next:
Note down GI50 recorded for CCN(CC)Cc1ccc(-c2c(-c3cc(C(C)C)c(O)cc3O)noc2NC(=O)C2CC2)cc1
0.126 µM
